Target: mMC3R (Mus musculus)
Sequence (P33033 whole entry): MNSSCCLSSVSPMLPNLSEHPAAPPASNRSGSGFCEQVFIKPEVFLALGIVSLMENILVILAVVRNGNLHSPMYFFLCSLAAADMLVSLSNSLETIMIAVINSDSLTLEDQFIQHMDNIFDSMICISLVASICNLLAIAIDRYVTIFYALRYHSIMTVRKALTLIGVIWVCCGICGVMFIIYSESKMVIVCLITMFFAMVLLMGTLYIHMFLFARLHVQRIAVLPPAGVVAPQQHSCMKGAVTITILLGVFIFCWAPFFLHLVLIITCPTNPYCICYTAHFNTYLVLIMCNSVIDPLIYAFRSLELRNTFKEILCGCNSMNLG
Experiment: cAMP-based β-galactosidase reporter agonist assay in HEK293 cells, mMC3R
Conditions: EC50 of substituted peptide divided by EC50 of NDP-MSH; potency loss
measurement-kind: mMC3R fold difference (fold)
Form entry: value (fold) — number only.

input: // query mMC3R fold difference value for entry CCCC[C@H](NC(=O)[C@H](CO)NC(=O)[C@H](Cc1ccc(O)cc1)NC(=O)[C@H](CO)NC(C)=O)C(=O)N[C@@H](CCC(=O)O)C(=O)N[C@@H](Cc1c[nH]cn1)C(=O)N[C@H](Cc1ccccc1)C(=O)N[C@@H](CCCNC(=N)N)C(=O)N[C@@H](C)C(=O)NCC(=O)N[C@@H](CCCCN)C(=O)N1CCC[C@H]1C(=O)N[C@H](C(N)=O)C(C)C [[Ala^9]NDP-MSH]
output: 1230

====

Target: mMC4R (Mus musculus, UniProt P56450)
Sequence (P56450 whole entry): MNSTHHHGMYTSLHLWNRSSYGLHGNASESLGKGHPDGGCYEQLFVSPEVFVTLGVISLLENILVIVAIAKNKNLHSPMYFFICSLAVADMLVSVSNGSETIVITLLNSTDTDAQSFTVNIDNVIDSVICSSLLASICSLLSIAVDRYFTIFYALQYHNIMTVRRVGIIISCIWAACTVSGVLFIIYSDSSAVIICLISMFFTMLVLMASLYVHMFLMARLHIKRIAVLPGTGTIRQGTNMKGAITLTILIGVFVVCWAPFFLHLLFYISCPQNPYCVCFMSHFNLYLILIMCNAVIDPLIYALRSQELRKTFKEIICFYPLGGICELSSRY
Test: cAMP-based β-galactosidase reporter agonist assay in HEK293 cells, mMC4R
Conditions: EC50 of substituted peptide divided by EC50 of NDP-MSH; potency loss
measurement-kind: mMC4R fold difference (fold)
Response body: numeric value in fold, unit text excluded.

Worked cases, answers included:
[[record]]
compound = "CCCC[C@H](NC(=O)[C@H](CO)NC(=O)[C@H](Cc1ccc(O)cc1)NC(=O)[C@H](CO)NC(C)=O)C(=O)N[C@@H](C)C(=O)N[C@@H](Cc1c[nH]cn1)C(=O)N[C@H](Cc1ccccc1)C(=O)N[C@@H](CCCNC(=N)N)C(=O)N[C@@H](Cc1c[nH]c2ccccc12)C(=O)NCC(=O)N[C@@H](CCCCN)C(=O)N1CCC[C@H]1C(=O)N[C@H](C(N)=O)C(C)C [[Ala^5]NDP-MSH]"
endpoint_result = 4

[[record]]
compound = "CCCC[C@H](NC(=O)[C@H](CO)NC(=O)[C@H](Cc1ccc(O)cc1)NC(=O)[C@H](CO)NC(C)=O)C(=O)N[C@@H](CCC(=O)O)C(=O)N[C@@H](Cc1c[nH]cn1)C(=O)N[C@H](Cc1ccccc1)C(=O)N[C@@H](C)C(=O)N[C@@H](Cc1c[nH]c2ccccc12)C(=O)NCC(=O)N[C@@H](CCCCN)C(=O)N1CCC[C@H]1C(=O)N[C@H](C(N)=O)C(C)C [[Ala^8]NDP-MSH]"
endpoint_result = 29


Now take the following compound into account.
input: Would you mind telling me what mMC4R fold difference value was observed for CCCC[C@H](NC(=O)[C@H](CO)NC(=O)[C@H](Cc1ccc(O)cc1)NC(=O)[C@H](CO)NC(C)=O)C(=O)N[C@@H](CCC(=O)O)C(=O)N[C@@H](Cc1c[nH]cn1)C(=O)N[C@H](Cc1ccccc1)C(=O)N[C@@H](CCCNC(=N)N)C(=O)N[C@@H](C)C(=O)NCC(=O)N[C@@H](CCCCN)C(=O)N1CCC[C@H]1C(=O)N[C@H](C(N)=O)C(C)C [[Ala^9]NDP-MSH] ?
output: 2120

====

Molecular target: UniProt Q01727
Sequence (Q01727 whole entry): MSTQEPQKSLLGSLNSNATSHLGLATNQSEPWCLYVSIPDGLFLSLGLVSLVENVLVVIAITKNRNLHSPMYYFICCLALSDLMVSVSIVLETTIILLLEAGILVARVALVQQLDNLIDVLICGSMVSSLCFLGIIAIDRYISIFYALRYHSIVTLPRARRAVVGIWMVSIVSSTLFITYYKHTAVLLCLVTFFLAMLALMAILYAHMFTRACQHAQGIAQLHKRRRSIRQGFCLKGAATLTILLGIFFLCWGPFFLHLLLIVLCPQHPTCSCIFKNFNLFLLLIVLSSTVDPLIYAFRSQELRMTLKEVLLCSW
Experiment: cAMP-based β-galactosidase reporter agonist assay in HEK293 cells, mMC1R
Conditions: EC50 of substituted peptide divided by EC50 of α-MSH; potency loss
measurement-kind: mMC1R fold difference (fold)
Provide the reading as a plain figure in fold.

Example cases with answers are listed next.
[[record]]
compound = "CSCC[C@H](NC(=O)[C@H](CO)NC(=O)[C@H](Cc1ccc(O)cc1)NC(=O)[C@H](CO)NC(C)=O)C(=O)N[C@@H](CCC(=O)O)C(=O)N[C@@H](Cc1c[nH]cn1)C(=O)N[C@@H](Cc1ccccc1)C(=O)N[C@@H](C)C(=O)N[C@@H](Cc1c[nH]c2ccccc12)C(=O)NCC(=O)N[C@@H](CCCCN)C(=O)N1CCC[C@H]1C(=O)N[C@H](C(N)=O)C(C)C [[Ala^8]α-MSH]"
tested_target = "UniProt Q01727"
unit_tag = "fold"
endpoint_result = 200

[[record]]
compound = "CSCC[C@H](NC(=O)[C@H](CO)NC(=O)[C@H](Cc1ccc(O)cc1)NC(=O)[C@H](CO)NC(C)=O)C(=O)N[C@@H](C)C(=O)N[C@@H](Cc1c[nH]cn1)C(=O)N[C@@H](Cc1ccccc1)C(=O)N[C@@H](CCCNC(=N)N)C(=O)N[C@@H](Cc1c[nH]c2ccccc12)C(=O)NCC(=O)N[C@@H](CCCCN)C(=O)N1CCC[C@H]1C(=O)N[C@H](C(N)=O)C(C)C [[Ala^5]α-MSH]"
tested_target = "UniProt Q01727"
unit_tag = "fold"
endpoint_result = 1560


Now let's try a different one.
input: Consider the compound shown here: CSCC[C@H](NC(=O)[C@H](CO)NC(=O)[C@H](C)NC(=O)[C@H](CO)NC(C)=O)C(=O)N[C@@H](CCC(=O)O)C(=O)N[C@@H](Cc1c[nH]cn1)C(=O)N[C@@H](Cc1ccccc1)C(=O)N[C@@H](CCCNC(=N)N)C(=O)N[C@@H](Cc1c[nH]c2ccccc12)C(=O)NCC(=O)N[C@@H](CCCCN)C(=O)N1CCC[C@H]1C(=O)N[C@H](C(N)=O)C(C)C [[Ala^2]α-MSH] What is its recorded mMC1R fold difference?
output: 7

====

# mMC5R fold difference values compiled below
Target: UniProtKB P41149
Sequence (P41149 whole entry): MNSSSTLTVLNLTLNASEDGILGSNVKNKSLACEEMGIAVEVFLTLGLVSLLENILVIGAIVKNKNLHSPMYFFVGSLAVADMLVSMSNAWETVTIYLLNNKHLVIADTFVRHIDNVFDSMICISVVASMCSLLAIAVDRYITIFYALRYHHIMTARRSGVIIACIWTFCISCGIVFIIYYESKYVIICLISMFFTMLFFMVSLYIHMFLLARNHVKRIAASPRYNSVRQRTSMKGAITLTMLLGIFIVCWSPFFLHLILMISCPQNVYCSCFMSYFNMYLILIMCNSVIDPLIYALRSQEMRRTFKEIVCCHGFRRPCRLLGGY
Test: cAMP-based β-galactosidase reporter agonist assay in HEK293 cells, mMC5R
Details: EC50 of substituted peptide divided by EC50 of α-MSH; potency loss
Use fold as the unit, but write only the number.

[[record]]
compound = "CSCC[C@H](NC(=O)[C@H](CO)NC(=O)[C@H](Cc1ccc(O)cc1)NC(=O)[C@H](CO)NC(C)=O)C(=O)N[C@@H](CCC(=O)O)C(=O)N[C@@H](Cc1c[nH]cn1)C(=O)N[C@@H](Cc1ccccc1)C(=O)N[C@@H](C)C(=O)N[C@@H](Cc1c[nH]c2ccccc12)C(=O)NCC(=O)N[C@@H](CCCCN)C(=O)N1CCC[C@H]1C(=O)N[C@H](C(N)=O)C(C)C [[Ala^8]α-MSH]"
endpoint_result = 5


input: Which measured mMC5R fold difference value corresponds to CSCC[C@H](NC(=O)[C@H](CO)NC(=O)[C@H](Cc1ccc(O)cc1)NC(=O)[C@H](CO)NC(C)=O)C(=O)N[C@@H](CCC(=O)O)C(=O)N[C@@H](Cc1c[nH]cn1)C(=O)N[C@@H](Cc1ccccc1)C(=O)N[C@@H](CCCNC(=N)N)C(=O)N[C@@H](C)C(=O)NCC(=O)N[C@@H](CCCCN)C(=O)N1CCC[C@H]1C(=O)N[C@H](C(N)=O)C(C)C [[Ala^9]α-MSH] ?
output: 1370

====

Molecular target: UniProt Q01727
Test: cAMP-based β-galactosidase reporter agonist assay in HEK293 cells, mMC1R
Settings: EC50 of substituted peptide divided by EC50 of α-MSH; potency loss
measurement-kind: mMC1R fold difference (fold)
State just the number; it will be interpreted in fold.

[[record]]
compound = "CSCC[C@H](NC(=O)[C@H](CO)NC(=O)[C@H](Cc1ccc(O)cc1)NC(=O)[C@H](C)NC(C)=O)C(=O)N[C@@H](CCC(=O)O)C(=O)N[C@@H](Cc1c[nH]cn1)C(=O)N[C@@H](Cc1ccccc1)C(=O)N[C@@H](CCCNC(=N)N)C(=O)N[C@@H](Cc1c[nH]c2ccccc12)C(=O)NCC(=O)N[C@@H](CCCCN)C(=O)N1CCC[C@H]1C(=O)N[C@H](C(N)=O)C(C)C [[Ala^1]α-MSH]"
endpoint_result = 5


Attention now shifts to the item below.
input: # mMC1R fold difference lookup, item CSCC[C@H](NC(=O)[C@H](C)NC(=O)[C@H](Cc1ccc(O)cc1)NC(=O)[C@H](CO)NC(C)=O)C(=O)N[C@@H](CCC(=O)O)C(=O)N[C@@H](Cc1c[nH]cn1)C(=O)N[C@@H](Cc1ccccc1)C(=O)N[C@@H](CCCNC(=N)N)C(=O)N[C@@H](Cc1c[nH]c2ccccc12)C(=O)NCC(=O)N[C@@H](CCCCN)C(=O)N1CCC[C@H]1C(=O)N[C@H](C(N)=O)C(C)C [[Ala^3]α-MSH]
output: 26

====

Target: mMC4R (Mus musculus)
Assay: cAMP-based β-galactosidase reporter agonist assay in HEK293 cells, mMC4R
Conditions: EC50 of substituted peptide divided by EC50 of NDP-MSH; potency loss
measurement-kind: mMC4R fold difference

[[record]]
compound = "CCCC[C@H](NC(=O)[C@H](CO)NC(=O)[C@H](Cc1ccc(O)cc1)NC(=O)[C@H](CO)NC(C)=O)C(=O)N[C@@H](CCC(=O)O)C(=O)N[C@@H](Cc1c[nH]cn1)C(=O)N[C@H](Cc1ccccc1)C(=O)N[C@@H](CCCNC(=N)N)C(=O)N[C@@H](Cc1c[nH]c2ccccc12)C(=O)N[C@@H](C)C(=O)N[C@@H](CCCCN)C(=O)N1CCC[C@H]1C(=O)N[C@H](C(N)=O)C(C)C [[Ala^10]NDP-MSH]"
tested_target = "mMC4R (Mus musculus)"
measurement_kind = "mMC4R fold difference"
endpoint_result = "unaltered"

[[record]]
compound = "CCCC[C@H](NC(=O)[C@H](CO)NC(=O)[C@H](Cc1ccc(O)cc1)NC(=O)[C@H](CO)NC(C)=O)C(=O)N[C@@H](CCC(=O)O)C(=O)N[C@@H](Cc1c[nH]cn1)C(=O)N[C@H](Cc1ccccc1)C(=O)N[C@@H](CCCNC(=N)N)C(=O)N[C@@H](Cc1c[nH]c2ccccc12)C(=O)NCC(=O)N[C@@H](CCCCN)C(=O)N[C@@H](C)C(=O)N[C@H](C(N)=O)C(C)C [[Ala^12]NDP-MSH]"
tested_target = "mMC4R (Mus musculus)"
measurement_kind = "mMC4R fold difference"
endpoint_result = "5 fold"

[[record]]
compound = "CCCC[C@H](NC(=O)[C@H](CO)NC(=O)[C@H](Cc1ccc(O)cc1)NC(=O)[C@H](CO)NC(C)=O)C(=O)N[C@@H](CCC(=O)O)C(=O)N[C@@H](Cc1c[nH]cn1)C(=O)N[C@H](Cc1ccccc1)C(=O)N[C@@H](CCCNC(=N)N)C(=O)N[C@@H](Cc1c[nH]c2ccccc12)C(=O)NCC(=O)N[C@@H](CCCCN)C(=O)N1CCC[C@H]1C(=O)N[C@@H](C)C(N)=O [[Ala^13]NDP-MSH]"
tested_target = "mMC4R (Mus musculus)"
measurement_kind = "mMC4R fold difference"
endpoint_result = "unaltered"

